Target: Delta-type opioid receptor (Homo sapiens)
Sequence (P41143 whole entry): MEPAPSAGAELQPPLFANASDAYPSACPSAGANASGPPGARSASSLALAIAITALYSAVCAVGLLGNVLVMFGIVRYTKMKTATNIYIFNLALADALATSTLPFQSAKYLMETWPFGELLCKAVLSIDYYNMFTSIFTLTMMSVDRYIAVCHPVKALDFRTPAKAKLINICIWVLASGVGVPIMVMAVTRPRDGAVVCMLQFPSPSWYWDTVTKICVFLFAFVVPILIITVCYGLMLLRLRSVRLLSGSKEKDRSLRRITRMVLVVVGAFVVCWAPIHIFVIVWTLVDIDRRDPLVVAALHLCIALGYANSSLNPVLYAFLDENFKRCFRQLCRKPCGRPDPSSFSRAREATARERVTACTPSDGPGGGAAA
Test: Displacement of [3H]DPDPE from human delta opioid receptor expressed in HN9.10 cells
pIC50: −log10 of the molar value.
Please mark Yes if the recorded pIC50 is equal to or greater than 8, and No if it falls below.

| smilesString | className |
| --- | --- |
| CCCC[C@H](NC(=O)[C@H](Cc1c[nH]c2ccccc12)NC(=O)OC(C)(C)C)C(=O)N[C@@H](CC(=O)O)C(=O)N[C@@H](Cc1ccccc1)C(=O)NNC(=O)[C@H](Cc1ccccc1)NC(=O)CNC(=O)[C@@H](C)NC(=O)[C@@H](N)Cc1ccc(O)cc1 | No |
| CCCC[C@H](NC(=O)[C@@H](Cc1c[nH]c2ccccc12)NC(=O)OC12CC3CC(CC(C3)C1)C2)C(=O)N[C@@H](CC(=O)O)C(=O)N[C@@H](Cc1ccccc1)C(=O)NNC(=O)[C@H](Cc1ccccc1)NC(=O)CNC(=O)[C@@H](C)NC(=O)[C@@H](N)Cc1ccc(O)cc1 | Yes |
| CCCC[C@@H](C(=O)N[C@@H](CC(=O)O)C(=O)N[C@@H](Cc1ccccc1)C(=O)NNC(=O)[C@H](Cc1ccccc1)NC(=O)CNC(=O)[C@@H](C)NC(=O)[C@@H](N)Cc1ccc(O)cc1)N(C)C(=O)[C@@H](Cc1c[nH]c2ccccc12)NC(=O)OC(C)(C)C | Yes |
| CCCC[C@H](NC(=O)[C@H](Cc1c[nH]c2ccccc12)NC(C)=O)C(=O)N[C@@H](CC(=O)O)C(=O)N[C@@H](Cc1ccccc1)C(=O)NNC(=O)[C@H](Cc1ccccc1)NC(=O)CNC(=O)[C@@H](C)NC(=O)[C@@H](N)Cc1ccc(O)cc1 | No |
| CCCC[C@H](NC(=O)[C@H](N)Cc1c[nH]c2ccccc12)C(=O)N[C@@H](CC(=O)O)C(=O)N[C@@H](Cc1ccccc1)C(=O)NNC(=O)[C@H](Cc1ccccc1)NC(=O)CNC(=O)[C@@H](C)NC(=O)[C@@H](N)Cc1ccc(O)cc1 | Yes |
| CCCC[C@H](NC(=O)[C@@H](Cc1c[nH]c2ccccc12)NC(=O)OC(C)(C)C)C(=O)N[C@@H](CC(=O)O)C(=O)N[C@@H](Cc1ccccc1)C(=O)NNC(=O)[C@H](Cc1ccccc1)NC(=O)CNC(=O)[C@@H](C)NC(=O)[C@@H](N)Cc1ccc(O)cc1 | No |

====

Listing of entries alongside the reported Ki.
Target: Gastrin/cholecystokinin type B receptor (Homo sapiens, UniProt P32239)
Sequence (P32239 whole entry): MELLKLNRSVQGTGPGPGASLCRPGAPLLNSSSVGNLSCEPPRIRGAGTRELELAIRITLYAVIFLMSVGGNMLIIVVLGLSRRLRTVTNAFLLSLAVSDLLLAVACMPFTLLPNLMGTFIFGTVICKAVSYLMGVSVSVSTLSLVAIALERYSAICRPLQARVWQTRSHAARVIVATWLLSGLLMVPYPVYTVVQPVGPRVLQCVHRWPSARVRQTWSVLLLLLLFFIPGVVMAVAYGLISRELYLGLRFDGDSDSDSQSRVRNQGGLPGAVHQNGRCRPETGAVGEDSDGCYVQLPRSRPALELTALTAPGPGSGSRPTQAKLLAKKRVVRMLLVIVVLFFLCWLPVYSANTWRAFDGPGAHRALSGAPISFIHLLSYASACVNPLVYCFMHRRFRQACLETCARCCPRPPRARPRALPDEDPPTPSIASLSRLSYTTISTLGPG
Test: Displacement of [125I]CCK8 from human CCK2 receptor expressed in HEK293 cells
Type: cell-based

| compound | comparisonOperator | Ki (nM) |
| --- | --- | --- |
| CCCC[C@H](NC(=O)[C@H](N)Cc1c[nH]c2ccccc12)C(=O)N[C@@H](CC(=O)O)C(=O)N[C@@H](Cc1ccccc1)C(=O)NNC(=O)[C@H](Cc1ccccc1)NC(=O)CNC(=O)[C@@H](C)NC(=O)[C@@H](N)Cc1ccc(O)cc1 | = | 9300 |
| CCCC[C@@H](C(=O)N[C@@H](CC(=O)O)C(=O)N[C@@H](Cc1ccccc1)C(=O)NNC(=O)[C@H](Cc1ccccc1)NC(=O)CNC(=O)[C@@H](C)NC(=O)[C@@H](N)Cc1ccc(O)cc1)N(C)C(=O)[C@@H](Cc1c[nH]c2ccccc12)NC(=O)OC(C)(C)C | = | 1500 |
| CCCC[C@H](NC(=O)[C@@H](Cc1c[nH]c2ccccc12)NC(=O)OC1C2CC3CC(C2)CC1C3)C(=O)N[C@@H](CC(=O)O)C(=O)N[C@@H](Cc1ccccc1)C(=O)NNC(=O)[C@H](Cc1ccccc1)NC(=O)CNC(=O)[C@@H](C)NC(=O)[C@@H](N)Cc1ccc(O)cc1 (some centres not stated) | = | 930 |
| CCCC[C@H](NC(=O)[C@H](Cc1c[nH]c2ccccc12)NC(=O)OC(C)(C)C)C(=O)N[C@@H](CC(=O)O)C(=O)N[C@@H](Cc1ccccc1)C(=O)NNC(=O)[C@H](Cc1ccccc1)NC(=O)CNC(=O)[C@@H](C)NC(=O)[C@@H](N)Cc1ccc(O)cc1 | = | 3800 |
| CCCC[C@H](NC(=O)[C@H](Cc1c[nH]c2ccccc12)NC(C)=O)C(=O)N[C@@H](CC(=O)O)C(=O)N[C@@H](Cc1ccccc1)C(=O)NNC(=O)[C@H](Cc1ccccc1)NC(=O)CNC(=O)[C@@H](C)NC(=O)[C@@H](N)Cc1ccc(O)cc1 | = | 1300 |
| CCCC[C@H](NC(=O)[C@@H](Cc1c[nH]c2ccccc12)NC(=O)OC(C)(C)C)C(=O)N[C@@H](CC(=O)O)C(=O)N[C@@H](Cc1ccccc1)C(=O)NNC(=O)[C@H](Cc1ccccc1)NC(=O)CNC(=O)[C@@H](C)NC(=O)[C@@H](N)Cc1ccc(O)cc1 | > | 10000 |
| CCCC[C@H](NC(=O)[C@@H](Cc1c[nH]c2ccccc12)NC(=O)OC12CC3CC(CC(C3)C1)C2)C(=O)N[C@@H](CC(=O)O)C(=O)N[C@@H](Cc1ccccc1)C(=O)NNC(=O)[C@H](Cc1ccccc1)NC(=O)CNC(=O)[C@@H](C)NC(=O)[C@@H](N)Cc1ccc(O)cc1 | = | 560 |
